# TARGET: 5-hydroxytryptamine receptor 2C (Homo sapiens)
# Sequence (P28335 whole entry): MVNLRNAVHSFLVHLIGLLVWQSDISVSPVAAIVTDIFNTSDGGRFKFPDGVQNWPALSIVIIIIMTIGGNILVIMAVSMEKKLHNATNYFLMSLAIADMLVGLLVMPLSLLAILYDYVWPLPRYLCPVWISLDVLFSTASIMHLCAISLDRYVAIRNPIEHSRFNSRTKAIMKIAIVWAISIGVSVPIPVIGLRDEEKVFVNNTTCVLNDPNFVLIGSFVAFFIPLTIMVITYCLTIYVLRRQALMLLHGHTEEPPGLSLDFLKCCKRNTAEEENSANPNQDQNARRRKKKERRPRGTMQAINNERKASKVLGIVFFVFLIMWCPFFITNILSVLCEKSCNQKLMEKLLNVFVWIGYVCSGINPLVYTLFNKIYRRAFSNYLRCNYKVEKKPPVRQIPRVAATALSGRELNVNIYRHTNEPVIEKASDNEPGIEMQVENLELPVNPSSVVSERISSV
# TEST_DETAILS: Antagonist activity at human 5HT2C receptor expressed in human SH-SY5Y cells by FLIPR assay
OUTCOME_MEASURE: Ki (µM)

Recorded Ki, per entry:
O=C(O)C1=CCCN(C2CC[C@]3(Cc4ccccc4Cc4ccccc43)C2)C1 (single isomer, unassigned; stereoisomer 1) : 0.158
CC1(C(=O)O)CCN(C2CCC3(Cc4ccccc4Cc4ccccc43)C2)CC1 (configuration not stated) : 0.0158
O=C(O)C1CN(C2CC[C@]3(Cc4ccccc4Cc4ccccc43)C2)C1 (some centres not stated) : 0.00631
O=C(O)C1(F)CCCN(C2CC[C@]3(Cc4ccccc4Cc4ccccc43)C2)C1 (some centres not stated) : 1.58
O=C(O)CCNC1CC[C@]2(Cc3ccccc3Cc3ccccc32)C1 (some centres not stated) : 0.1

1 = O=C(O)C1CCN(C2CC[C@]3(Cc4ccccc4Cc4ccccc43)C2)CC1 (some centres not stated)
2 = O=C(O)C1CN(C2CC[C@]3(Cc4ccccc4Cc4ccccc43)C2)CCO1 (some centres not stated)
[ask] Form: Entry with minimum Ki (choose one): 1 / 2 Please indicate the selected item by its label.
[reply] 1
(1: 0.0631 µM, 2: 0.316 µM)
